test system: P388 leukemia ip, CD2F1 mice, survival T/C; assay: NCI In Vivo Anticancer Drug Screen. Data for tumor model P388 Leukemia (intraperitoneal) in CD2F1 (CDF1) mice; settings: endpoint: median survival time; dose: 3.13 mg/kg/injection; schedule: Q01DX009 (ip); vehicle: saline with Tween-80; higher = longer survival
Toxic doses and inconclusive results are not listed.
Listed here are compounds together with their documented T/C.
Recorded endpoint: T/C

CC(=O)c1c(N)n(C)c(=O)n(C)c1=O : 100 % of control
Cc1coc2c1C(OC(=O)C(C)C)C1(C)C(C)CCC(O)C1C2=O (centres undefined) : 96 % of control
Nc1nnc(SCc2ccccc2)s1 : 102 % of control
NN1C(=O)c2cccc3cccc(c23)C1=O : 105 % of control

----------
// reported T/C for each item listed
system: P388 leukemia ip, CD2F1 mice, survival T/C; assay: NCI In Vivo Anticancer Drug Screen. Data for tumor model P388 Leukemia (intraperitoneal) in CD2F1 (CDF1) mice; conditions: endpoint: median survival time; dose: 25.0 mg/kg/injection; schedule: Q04DX003 (ip); vehicle: saline; higher = longer survival
Toxic doses and inconclusive results are not listed.
Recorded endpoint: T/C

CS(=O)(=O)[O][Sn]([CH3])([CH3])[O]S(C)(=O)=O : 110 % of control
CCNC(C)(C)C(SSSC(c1ccc(C(F)(F)F)cc1)C(C)(C)NCC)c1ccc(C(F)(F)F)cc1 (stereo not given) : 107 % of control
CCCCCCCCC[N+](C)([O-])CCCCCC[N+](C)([O-])CCCCCCCCC (stereo not given) : 96 % of control
COc1ccc(CC(C#N)c2ccccc2)cc1 (stereo not given) : 99 % of control
CCC(NCC(C)C)NCC(C)C : 100 % of control

----------
Item-by-item account of T/C
Tested on: P388 leukemia ip, CD2F1 mice, survival T/C
Experiment: NCI In Vivo Anticancer Drug Screen. Data for tumor model P388 Leukemia (intraperitoneal) in CD2F1 (CDF1) mice
Details: endpoint: median survival time; dose: 100.0 mg/kg/injection; schedule: Q01DX009 (ip); vehicle: suspension in saline; higher = longer survival
Experimental: The antitumor activity of compounds was measured in mice bearing transplantable tumors. Survival or tumor size were measured and the results are expressed as the measurement made in the treated group (T) divided by the measurement made in the vehicle treated control group (C). The tumor model used in this assay is P388 Leukemia (intraperitoneal) in CD2F1 (CDF1) mice
Toxic doses and inconclusive results are not listed.
Recorded endpoint: T/C

Cn1c([N+](=O)[O-])cnc1/C=N\N1CC(CN2CCOCC2)OC1=O (stereo not given) : 100 % of control
COc1ccc(CSC(=S)Nc2ccc(C)c(C)c2)cc1 : 100 % of control
CC(C)SC(=S)Nc1ccc(F)cc1 : 101 % of control
CC1CN1P(=S)(N1CCCCC1)N1CC1C (stereo not given) : 102 % of control
CC1(C)NC(=O)c2c(-c3ccccc3)c(-c3ccccc3)n(-c3ccccc3)c2N1 : 98 % of control

----------
system: P388 leukemia ip, CD2F1 mice, survival T/C; assay: NCI In Vivo Anticancer Drug Screen. Data for tumor model P388 Leukemia (intraperitoneal) in CD2F1 (CDF1) mice; settings: endpoint: median survival time; dose: 25.0 mg/kg/injection; schedule: Q01DX009 (ip); vehicle: saline; higher = longer survival
Toxic doses and inconclusive results are not listed.
Recorded endpoint: T/C

COC(=O)C(NC(N)=O)OC (stereo unspecified) : 105 % of control
c1ccc2c(c1)Sc1ccccc1N2CCCN1CCCC1 : 104 % of control
OC1C[n+]2cc3ccccn3c2-c2cccc[n+]21 (stereo unspecified) : 97 % of control
O=C(Nc1c[nH]c(=O)[nH]c1=O)C(Cl)Cl : 100 % of control
COC(OC(CO)C(O)S(=O)(=O)O)C(O)S(=O)(=O)O (stereo unspecified) : 118 % of control
CC(=O)Nc1cccc(OCc2cccc(N3C(N)=NC(N)=NC3(C)C)c2)c1 : 117 % of control
